- System: Saccharomyces cerevisiae
- experiment_notes: Antifungal activity against Saccharomyces cerevisiae (strain YPH98)
- Format: functional, organism-based
measured_metric: IC50 (ng/mL)

- compound: "COC[C@]12CC3C(C)CCC3[C@@]3(C=O)CC1C=C(C(C)C)[C@@]23C(=O)O (some centres not stated)"
  IC50, ng/mL: 100
- compound: "CCCCOC[C@]12CC3C(C)CCC3[C@@]3(C=O)CC1C=C(C(C)C)[C@@]23C(=O)O (some centres not stated)"
  IC50, ng/mL: 0.1
- compound: "CCCCCOC[C@]12CC3C(C)CCC3[C@@]3(C=O)CC1C=C(C(C)C)[C@@]23C(=O)O (some centres not stated)"
  IC50, ng/mL: 0.01
- compound: "COC[C@]12CC3C(C)CCC3[C@@]3(C#N)CC1C=C(C(C)C)[C@@]23C(=O)O (some centres not stated)"
  IC50, ng/mL: 1000
- compound: "CC(C)CCOC[C@]12CC3C(C)CCC3[C@@]3(C=O)CC1C=C(C(C)C)[C@@]23C(=O)O (some centres not stated)"
  IC50, ng/mL: 0.01

[1] CC(C)COC[C@]12CC3C(C)CCC3[C@@]3(C=O)CC1C=C(C(C)C)[C@@]23C(=O)O (some centres not stated)
[2] CCOC[C@]12CC3C(C)CCC3[C@@]3(C=O)CC1C=C(C(C)C)[C@@]23C(=O)O (some centres not stated)
Problem: Given the entries 1 and 2 , determine which has the lower reported IC50. Kindly state the label of the option you pick. 1
(1: 0.1 ng/mL, 2: 60 ng/mL)

[a] CCCCCCCOC[C@]12CC3C(C)CCC3[C@@]3(C#N)CC1C=C(C(C)C)[C@@]23C(=O)O (some centres not stated)
[b] CCCCCCCCCOC[C@]12CC3C(C)CCC3[C@@]3(C=O)CC1C=C(C(C)C)[C@@]23C(=O)O (some centres not stated)
I need your help: which of the pair a , b has higher IC50? Kindly state the label of the option you pick. b
(b: 50000 ng/mL, a: 100 ng/mL)

[1] COC1C(C)OC(OCC23CC4C(C)CCC4[C@@]4(C#N)C[C@@H]2C=C(C(C)C)[C@@]34C(=O)O)C(O)C1O (some centres not stated)
[2] CCCCCCCCOC[C@]12CC3C(C)CCC3[C@@]3(C=O)CC1C=C(C(C)C)[C@@]23C(=O)O (some centres not stated)
I need your help: which of the pair 1 , 2 has higher IC50? Kindly state the label of the option you pick. 1

[I] CCCCCCCCOC[C@]12CC3C(C)CCC3[C@@]3(C#N)CC1C=C(C(C)C)[C@@]23C(=O)O (some centres not stated)
[II] CCCCCOC[C@]12CC3C(C)CCC3[C@@]3(C#N)CC1C=C(C(C)C)[C@@]23C(=O)O (some centres not stated)
[III] CCCCCCCOC[C@]12CC3C(C)CCC3[C@@]3(C=O)CC1C=C(C(C)C)[C@@]23C(=O)O (some centres not stated)
[IV] CCCCCCCCCOC[C@]12CC3C(C)CCC3[C@@]3(C#N)CC1C=C(C(C)C)[C@@]23C(=O)O (some centres not stated)
Ascending by IC50, please: list the compounds accordingly. Please write the labels in the order that was asked for. II, I, III, IV
(II: 0.01 ng/mL, I: 200 ng/mL, III: 300 ng/mL, IV: 1000 ng/mL)

The measured values listed here are drawn from ChEMBL document CHEMBL1130939.
